Tested on: A549
Experiment description: Induction of mitochondrial membrane potential loss in human A549 cells assessed as intact mitochondrial membrane at 100 nM after 48 hrs by JC-1 staining based flow cytometry (reference value: 95.9%)
Format: functional
Overview of reported Activity across a group of compounds:
Observation type: Activity (%)

[
  {
    "Compound structure": "COc1ccc(/C=C\\c2cc(OC)c(OC)c(OC)c2)cc1O",
    "Observation type": "Activity",
    "Endpoint unit": "%",
    "Obs value": 74.9
  },
  {
    "Compound structure": "COc1ccc2nc(-c3ccc(-n4cnnc4-c4cc(OC)c(OC)c(OC)c4)c(C)c3)sc2c1",
    "Observation type": "Activity",
    "Endpoint unit": "%",
    "Obs value": 80.5
  },
  {
    "Compound structure": "Cc1cc(-c2nc3cc(F)ccc3s2)ccc1N",
    "Observation type": "Activity",
    "Endpoint unit": "%",
    "Obs value": 81.8
  },
  {
    "Compound structure": "COc1cc(-c2nncn2-c2ccc(-c3nc4ccc(F)cc4s3)cc2C)cc(OC)c1OC",
    "Observation type": "Activity",
    "Endpoint unit": "%",
    "Obs value": 74.4
  }
]

* * *

Experiment description: Antiproliferative activity against human MCF7 cells after 48 hrs by MTT assay
Format: functional, cell-based
Condition label: MCF7, 48 h
pIC50: −log10 of the molar value.

[
  {
    "Compound structure": "COc1ccc2nc(-c3ccc(-n4nnnc4-c4cc(OC)c(OC)c(OC)c4)c(C)c3)sc2c1",
    "pIC50": 4.90
  },
  {
    "Compound structure": "COc1cc(-c2nnnn2-c2ccc(-c3nc4cc(OC)c(OC)c(OC)c4s3)cc2)cc(OC)c1OC",
    "pIC50": 5.06
  },
  {
    "Compound structure": "COc1cc(OC)c2sc(-c3ccc(-n4cnnc4-c4cc(OC)c(OC)c(OC)c4)cc3)nc2c1",
    "pIC50": 5.09
  }
]

* * *

Reported IC50 values for the following molecules.
Experiment description: Antiproliferative activity against human MCF7 cells after 48 hrs by MTT assay
Assay type: functional, cell-based
Condition label: MCF7, 48 h

[
  {
    "Compound structure": "COc1ccc2nc(-c3ccc(-n4cnnc4-c4cc(OC)c(OC)c(OC)c4)cc3)sc2c1",
    "IC50 / µM": 9.5
  },
  {
    "Compound structure": "COc1cc(OC)c2sc(-c3ccc(-n4cnnc4-c4cc(OC)c(OC)c(OC)c4)c(OC)c3)nc2c1",
    "IC50 / µM": 8.57
  },
  {
    "Compound structure": "COc1ccc2nc(-c3ccc(-n4nnnc4-c4cc(OC)c(OC)c(OC)c4)cc3)sc2c1",
    "IC50 / µM": 11.2
  },
  {
    "Compound structure": "COc1cc(-c2nnnn2-c2ccc(-c3nc4ccc(F)cc4s3)cc2)cc(OC)c1OC",
    "IC50 / µM": 8.57
  },
  {
    "Compound structure": "COc1cc(-c2cn(-c3ccc(-c4nc5ccc(F)cc5s4)cc3C)nn2)cc(OC)c1OC",
    "IC50 / µM": 10.8
  },
  {
    "Compound structure": "COc1cc(-c2cn(-c3ccc(-c4nc5cc(OC)c(OC)c(OC)c5s4)cc3)nn2)cc(OC)c1OC",
    "IC50 / µM": 9.12
  },
  {
    "Compound structure": "COc1cc(-c2cn(-c3ccc(-c4nc5ccc(F)cc5s4)cc3)nn2)cc(OC)c1OC",
    "IC50 / µM": 10.7
  }
]
